# key: entry, value: composite z-score
- System: Wnt5a (protein binding on small-molecule microarray)
- measurement.notes: small molecules binding Wnt5a protein – biophysical, small-molecule microarray, 635/667 nm fluorescence, primary screen (AID 1142);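 also: fluorescence read at 667 nm with signal to noise per printed feature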
- settings: 635 nm fluorescence, higher = more signal
I only need the number, thanks.

Some entries whose results are on file:
>  <compound>
O=C(NCc1ccccc1)[C@@H]1c2ccccc2C(=O)N(Cc2cc(F)cc(C(F)(F)F)c2)[C@H]1c1ccc(CO)cc1

>  <composite z-score>
0.0748

$$$$
>  <compound>
[N-]=[N+]=Nc1ccccc1[C@H]1OC(c2ccc(OCCCO)cc2)=N[C@@]1(CCS(=O)(=O)c1ccccc1)C(=O)N1CCOCC1

>  <composite z-score>
1.48

$$$$
>  <compound>
Cc1c(NC(=O)/C(C#N)=C/C=C/c2ccccc2)c(=O)n(-c2ccccc2)n1C

>  <composite z-score>
0.17

$$$$
>  <compound>
O=C1OCCC=C[C@H]2OC34C=CCN(c5ccc6ccccc6c5)C(=O)[C@H]3N(CCCCCCO)C(=O)[C@@H]4C12 (stereo partly drawn)

>  <composite z-score>
-0.315

$$$$
>  <compound>
CCCCC(=O)N(Cc1ccccc1F)[C@@H]1CC(C(=O)NCCO)=C[C@H](Oc2c(I)cc(CO)cc2OC)[C@H]1O

>  <composite z-score>
1.91

$$$$
>  <compound>
C=CCN1C(=O)[C@]2(Cc3ccccc31)N=C(c1ccc(OCCCO)cc1)O[C@@H]2c1ccccc1

>  <composite z-score>
1.2

$$$$
>  <compound>
C=C[C@@H](C)[C@@H](OC(=O)Nc1ccc(OC)cc1)c1ccc(O)c2ccccc12

>  <composite z-score>
-0.124

$$$$
>  <compound>
C[N+](C)(C)CCCC[C@@H]1NC(=O)[C@H]2C[C@@H](C(=O)O)[C@@H](c3cccc(OCCO)c3)N2C1=O

>  <composite z-score>
1.93

$$$$
>  <compound>
CN(C)CCCC[C@@H]1NC(=O)[C@H]2C[C@@H](C(=O)NCCCCCNC(=O)CS)[C@@H](c3ccc(O)cc3)N2C1=O

>  <composite z-score>
-0.22

$$$$
>  <compound>
Oc1ccc2cc[n+](Cc3cccc(OC(F)(F)F)c3)cc2c1

>  <composite z-score>
0.112

$$$$

Prompt line: What composite z-score value was documented for this compound, COCCCNC(=O)[C@]1(Cc2ccccc2N=[N+]=[N-])N=C(c2ccc(OCCCO)cc2)O[C@@H]1c1ccccc1CN=[N+]=[N-] ?
Response line: 0.823

Prompt line: Could you do the same for O=C(NCC(O)CO)[C@@]1(Cc2ccccc2)N=C(c2ccc(OCCCO)cc2)O[C@H]1c1ccccc1 (stereo partly drawn) , please?
Response line: 0.626

Prompt line: Same question, COc1ccc([Si](C)(C)[C@@H]2[C@@H](CCO)O[C@]3(C(=O)N(Cc4ccccc4)c4ccc(N(C=O)c5ccccc5)cc43)[C@H]2C)cc1 this time
Response line: 0.155
